assay: AUC (0 to t) in mouse at 2000 mg/kg/day, po measured after 10 days; type: ADME, organism-based; design: time 10 day, dose 2000 mg/kg/day; conditions: in vivo
reported_property: AUC(0-t) at 240 h

Recorded AUC(0-t) at 240 h of `Cc1ccc(-c2c(C)nc(-c3cccc(F)c3O)n(CCc3ccccc3)c2=O)s1` , please.
1580 ng·h/mL

====

experiment: AUC (0 to t) in rat at 100 mg/kg/day measured after 1 day; type: ADME, organism-based; set-up: time 1 day, dose 100 mg/kg/day; conditions: in vivo
reported_property: AUC(0-t) at 24 h (ng·h/mL)
One number for each entry, in ng·h/mL.

Look up AUC(0-t) at 24 h for this compound: `Cc1nc(-c2cccc(F)c2O)n(CCc2ccccc2)c(=O)c1-c1cc(-c2ccccn2)c(C)s1`
29500

All figures here come from ChEMBL document CHEMBL4837255.
